- Assay notes: Solubility of the salts in water and organic solvents
- Assay type: physicochemical
- Condition description: water
Measured endpoint: solubility in water

1. Fc1c(F)c(F)c([B-](c2c(F)c(F)c(F)c(F)c2F)(c2c(F)c(F)c(F)c(F)c2F)c2c(F)c(F)c(F)c(F)c2F)c(F)c1F.[Rb+] [Compound 8, Rb[B(C6F5)4]] : water insoluble
2. Fc1c(F)c(F)c([B-](c2c(F)c(F)c(F)c(F)c2F)(c2c(F)c(F)c(F)c(F)c2F)c2c(F)c(F)c(F)c(F)c2F)c(F)c1F.[Tl+] [Compound 9, Tl[B(C6F5)4], reference compound] : water insoluble
